# Tested Target: Pim-1 (Homo sapiens (Human), UniProt P11309)
# Sequence (P11309 whole entry): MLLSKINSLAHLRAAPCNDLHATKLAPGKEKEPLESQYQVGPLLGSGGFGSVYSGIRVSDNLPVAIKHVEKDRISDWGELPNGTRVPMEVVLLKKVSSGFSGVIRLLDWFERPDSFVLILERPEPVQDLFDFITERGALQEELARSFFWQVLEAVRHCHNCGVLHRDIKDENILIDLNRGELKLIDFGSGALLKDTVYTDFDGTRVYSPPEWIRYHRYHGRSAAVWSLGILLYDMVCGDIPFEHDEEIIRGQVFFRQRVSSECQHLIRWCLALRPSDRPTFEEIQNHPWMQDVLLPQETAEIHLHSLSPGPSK
# Method Notes: Pim kinase binding activity assay (Example 901), PIM-1 enzyme, Caliper microfluidic peptide phosphorylation
# Assay type: biochemical
# Measurement Setup: 20 pM PIM-1, 10 μM ATP, 1 μM FAM-peptide, 90 minutes at room temperature
pKi: −log10 of the molar value.
Parameter class (string): assigned from measured pKi. Ranges: one = under 8, two = from 8 up to 10, three = 10 and over

Compound: N[C@H]1CCCC(Nc2cccc(-c3n[nH]c4cnc(-c5cccnc5)cc34)n2)C1 (stereo in doubt)
Category Label: three
--
Compound: CN1C(=O)CN(c2cc3c(-c4ccccc4)n[nH]c3cn2)C1=O
Category Label: one
--
Compound: Fc1ccccc1-c1n[nH]c2cnc(-c3cnccc3O[C@H]3CCCNC3)cc12
Category Label: two
--
Compound: OC1(c2cccc(-c3n[nH]c4cnc(-c5cccnc5)cc34)n2)CCNCC1
Category Label: one
--
Compound: NC1CCN(Cc2n[nH]c3cnc(-c4cn[nH]c4)cc23)CC1
Category Label: one
--
Compound: O[C@@H]1CCCN(c2nc(-c3n[nH]c4cnc(-c5cccnc5)cc34)ccc2Br)C1
Category Label: two
--
Compound: CCn1cc(-c2cc3c(-c4ccc(Br)c(N5C[C@H](N)C[C@@H](F)C5)n4)n[nH]c3cn2)cn1
Category Label: three
--
Compound: NC1CCN(c2cc(-c3n[nH]c4cnc(-c5cccnc5)cc34)ccn2)CC1
Category Label: two
--
Compound: Cc1cncc(-c2cc3c(-c4cccc(N5CCNCC5)n4)n[nH]c3cn2)c1
Category Label: three
--
Compound: CCc1ccc(-c2n[nH]c3cnc(-c4cccnc4)cc23)nc1N1CCC[C@H](N)C1
Category Label: three
--
Compound: NCCNc1cc(-c2n[nH]c3cnc(-c4cccnc4)cc23)ccn1
Category Label: two
--
Compound: Cc1n[nH]c2cnc(-c3cnn(C)c3)cc12
Category Label: one
--
Compound: Cn1cc(-c2cc3c(-c4cccc(O[C@@H]5CCCNC5)n4)n[nH]c3cn2)cn1
Category Label: two
--
Compound: O=C1N(c2n[nH]c3cnc(-c4cccnc4)cc23)CCC12CCNCC2
Category Label: one
--
Compound: Cn1cc(-c2cc3c(-c4ccc(Br)c(N5C[C@@H](N)C[C@@H](F)C5)n4)n[nH]c3cn2)cn1
Category Label: three
--
Compound: CCn1cc(-c2cc3c(-c4cc(C)ccn4)n[nH]c3cn2)cn1
Category Label: one
--
Compound: Cn1cc(-c2cc3c(-c4ccnc(N5CCCCC5)n4)n[nH]c3cn2)cn1
Category Label: two
--
Compound: COc1cncc(-c2cc3c(-c4cccc(N5CCNCC5)n4)n[nH]c3cn2)c1
Category Label: three
--
Compound: NC(=O)[C@@H]1CCCN1c1ccc(-c2n[nH]c3cnc(-c4cccnc4)cc23)nc1
Category Label: two
--
Compound: Cc1ccc(-c2n[nH]c3cnc(-c4cccnc4)cc23)nc1N1CCC(N)CC1
Category Label: three
--
Compound: CCn1cc(-c2cc3c(-c4cccc(N5CCC[C@H](N)CC5)n4)n[nH]c3cn2)cn1
Category Label: three
--
Compound: CCn1cc(-c2cc3c(-c4nc(N5CCC[C@H](N)C5)ccc4Cl)n[nH]c3cn2)cn1
Category Label: two
--
Compound: Fc1ccccc1-c1n[nH]c2cnc(-c3cncnc3)cc12
Category Label: one
--
Compound: c1ccc(-c2n[nH]c3cnc(-c4cncnc4)cc23)cc1
Category Label: one

Source: patent US9260425B2
